Listing: CellTox Green cytotoxicity fluorescence of selected molecules
# System: MV4-11
# Protocol notes: CellTox Green cytotoxicity fluorescence relative to DMSO vehicle (fold of vehicle RFU); higher = more cell death (loss of membrane integrity), active = 2 or more
# Setup conditions: 0.01 µM; 72 h
Please reply with the number alone, leaving off any unit.

Below are worked cases with known answers.
CCCCNc1ncc2c(-c3ccc(CN4CCN(C)CC4)cc3)cn([C@H]3CC[C@H](O)CC3)c2n1 : 1.28
Fc1ccc(CNc2ncnc3ccc(F)cc23)cc1 [Spautin-1] : 0.962

Now for a further molecule.
Data request: If you can, please state the reported CellTox Green cytotoxicity fluorescence value of CN(C)CCCCC(=O)Nc1ccc(NC(=S)NC(=O)c2ccc(C(C)(C)C)cc2)cc1 [Tenovin-6] .
Data returned: 0.989
